Molecular target: 5-HT4-receptor (5-HT4B membrane preparations) (Homo sapiens, UniProt Q13639)
Construct: 5-HT4B membrane preparations (HTS110M, Millipore), recombinant
Sequence (Q13639 whole entry): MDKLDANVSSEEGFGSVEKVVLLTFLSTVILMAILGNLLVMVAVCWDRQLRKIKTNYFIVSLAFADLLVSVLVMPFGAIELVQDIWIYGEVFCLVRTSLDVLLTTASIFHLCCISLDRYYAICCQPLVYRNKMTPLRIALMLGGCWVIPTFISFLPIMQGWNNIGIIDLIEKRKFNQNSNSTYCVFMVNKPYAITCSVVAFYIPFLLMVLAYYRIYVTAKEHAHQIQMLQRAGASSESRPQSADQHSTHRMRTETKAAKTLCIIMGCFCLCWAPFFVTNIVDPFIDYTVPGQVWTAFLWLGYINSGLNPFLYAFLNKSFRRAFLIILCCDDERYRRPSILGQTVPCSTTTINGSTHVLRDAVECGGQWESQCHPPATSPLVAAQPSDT
Test: radioligand-type competition binding on recombinant 5-HT4B membranes (filtration); partial agonist in cAMP assay
MEASURED METRIC: Ki (nM)
# unit: nM | format: bare number

Lab note: measured Ki of COc1cc(N)c(Cl)cc1C(=O)CCC1CCN(Cc2cccc(N)c2)CC1 [MR33317] was 42.5

The reported numbers originate from paper PMC11522085.
